Quick record: Ki, human σ1 receptor (Homo sapiens (Human)).

Before answering, review these 2 worked examples.
# returns recorded Ki (system: human σ1 receptor (Homo sapiens (Human))) for CCN1CC2(CCCN(CC(C)C)CC2)OC(C)(C)C1=O (stereo not drawn) < 0.5 µM

One more molecule: CC(C)CCN1CCCC2(C1)CN(C(=O)c1ccccc1)CC1(CC1)O2 (stereo not drawn) < 0.5 µM

// next entry
Under human σ1 receptor (Homo sapiens (Human)): Ki value of CCN1C[C@@]2(CCCN(Cc3ccc(F)cc3)CC2)O[C@H](C)C1=O ? ≥ 0.5 µM

* * *

pKi: −log10 of the molar value.
Read-out record for human σ1 receptor (Homo sapiens (Human), UniProt Q99720): pKi

What value of pKi has been recorded for this entry: c1ccc(CCN2CC3(CN(Cc4ccccc4)CC4(CC4)O3)C2)cc1 > 7.00

Request: CN1CC2(CCCN(Cc3ccc(C#N)cc3)CC2)OC2(CC2)C1=O (centres unmarked) ≤ 6.30

What do you have for CCN1C[C@@]2(CCCN(Cc3ccc(F)cc3)CC2)O[C@@H](C)C1=O ? ≤ 6.30

Now the compound CCN1CC2(CN(CCc3ccccc3)C2)OC2(CC2)C1=O > 6.30

// query: c1ccc(CCN2CCCC3(CC2)CN(Cc2ccccc2)CC2(CC2)O3)cc1 (centres unmarked) > 7.00

Queued: CC(C)CN1CCCC2(C1)CN(Cc1ccccc1)CC1(CC1)O2 (centres unmarked) > 7.00

Next compound: CC(C)CCN1CCCC2(CC1)CN(c1ccccc1)C(=O)C1(CC1)O2 (centres unmarked) > 7.00

One more compound: CC(C)CCN1CCCC2(CC1)CN(Cc1ccccc1)CC1(CC1)O2 (centres unmarked) > 7.00

Try this compound too: CCN1CC2(CCCN(CCc3ccccc3)CC2)OC2(CC2)C1=O (centres unmarked) > 7.00

What do you have for c1ccc(CN2CCCC3(CC2)CN(Cc2ccccc2)CC2(CC2)O3)cc1 (centres unmarked) ? > 7.00

Further, for CC1(C)CN(C(=O)c2ccccc2)CC2(CCCN(CCc3ccccc3)CC2)O1 (centres unmarked) ? > 7.00

Try this compound too: CCN1C[C@]2(CCCN(CCC(C)C)CC2)O[C@H](C)C1=O ≤ 6.30

Next compound: CN1CC2(CCCN(Cc3ccc(F)cc3)CC2)OC2(CC2)C1=O (centres unmarked) ≤ 6.30

Please give the result for CCN1CC2(CC2)OC2(CCCN(CCc3ccccc3)C2)C1 (centres unmarked) too. ≤ 6.30

Where these numbers come from: patent US10689398B2
